# study-system: T1, P-cadherin-ECD1-3-Fc protein (human P-cadherin-Fc) (human, UniProt P22223 108-440)
# T1 construct: Construct was expressed with signal peptide and pro-peptide (PACE co-transfected to process the propeptide); not shown: hinge and CH2 and CH3 domains of human IgG1
# T1 sequence (P22223 108-440): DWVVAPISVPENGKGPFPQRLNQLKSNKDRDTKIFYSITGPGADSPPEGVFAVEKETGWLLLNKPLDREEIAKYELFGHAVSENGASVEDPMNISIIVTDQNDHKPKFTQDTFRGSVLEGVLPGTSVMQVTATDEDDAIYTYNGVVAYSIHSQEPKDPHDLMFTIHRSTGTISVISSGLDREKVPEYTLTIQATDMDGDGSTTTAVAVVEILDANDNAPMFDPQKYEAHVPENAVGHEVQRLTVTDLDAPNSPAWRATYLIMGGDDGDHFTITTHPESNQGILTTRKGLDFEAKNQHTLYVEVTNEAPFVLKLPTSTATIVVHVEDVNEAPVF
# assay-procedure: phage scFv ELISA, coated P-cadherin-ECD1-3-Fc
# reported Z Score; entries follow
property-label: Z Score

[
  {
    "binder": "anti-P-cadherin scFv 153 alanine-mutant L1.11-Ala (scFv, V domains shown, scFv on phage) VH: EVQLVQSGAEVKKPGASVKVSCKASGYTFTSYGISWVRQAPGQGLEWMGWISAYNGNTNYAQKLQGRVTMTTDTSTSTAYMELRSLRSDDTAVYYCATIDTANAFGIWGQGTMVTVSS VL: QSVLTQPPSVSAAPGQKVTISCSGSSSNIGNNAVSWYQQLPGTAPKLLIYDNNKRPSGIPDRFSGSKSGTSATLGITGLQTGDEADYYCGTWDSSLSGVVFGGGTKLTVL",
    "reported-value": 0.8
  },
  {
    "binder": "anti-P-cadherin scFv 153 alanine-mutant L1.13-Ala (scFv, V domains shown, scFv on phage) VH: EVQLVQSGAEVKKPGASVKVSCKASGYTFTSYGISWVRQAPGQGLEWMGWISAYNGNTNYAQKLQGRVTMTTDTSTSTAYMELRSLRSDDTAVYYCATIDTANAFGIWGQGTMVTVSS VL: QSVLTQPPSVSAAPGQKVTISCSGSSSNIGNNYVAWYQQLPGTAPKLLIYDNNKRPSGIPDRFSGSKSGTSATLGITGLQTGDEADYYCGTWDSSLSGVVFGGGTKLTVL",
    "reported-value": 1.5
  },
  {
    "binder": "anti-P-cadherin scFv 153 alanine-mutant L2.3-Ala (scFv, V domains shown, scFv on phage) VH: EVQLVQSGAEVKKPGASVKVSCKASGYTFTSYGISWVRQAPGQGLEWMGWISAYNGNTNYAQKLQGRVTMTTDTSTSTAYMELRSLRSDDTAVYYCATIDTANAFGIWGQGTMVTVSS VL: QSVLTQPPSVSAAPGQKVTISCSGSSSNIGNNYVSWYQQLPGTAPKLLIYDNAKRPSGIPDRFSGSKSGTSATLGITGLQTGDEADYYCGTWDSSLSGVVFGGGTKLTVL",
    "reported-value": -0.5
  }
]
